protocol-text: Human HepG2 cell viability assay in 384 well format
Type: toxicity, cell-based
Parameters: dose 125 nL, time 70.5 hour; concentration not given beside the values
cond: HepG2 cells, read-out: Inhibition
# cytotoxicity at 70.5 h values compiled below

• CC(C)COCC(NC(=O)c1ccncc1)c1ccco1 (stereo unspecified) = -4.28%
• Cc1nn(C)c(Cl)c1C1CCCN1C(=O)c1cccn1C (stereo unspecified) = -10.5%

Which measured cytotoxicity at 70.5 h value corresponds to NC(=O)c1cncc(Oc2cccc(CN3CCCC3)c2Cl)n1 ?
-4.84%

Same again, this time with CC(C)CCC1=NC2(CCN(C(=O)CN3CCCC3=O)CC2)C(=O)N1
-5.52%

Same again, this time with O=C(Cc1ccc2c(c1)CCO2)N1CCCC1Cn1cccn1 (stereo unspecified)
-4.67%

Same again, this time with CC(=O)Nc1nc(CN2CCCC2Cn2cc(C)cn2)cs1 (stereo unspecified)
30.3%

Cited source for all entries: ChEMBL document CHEMBL3507680
